Reference source for all entries: patent US5190741A

- assay method text: Tissue distribution in Swiss nu/nu SSCUP mice bearing Beu
- Format: in vivo, human
- recorded conditions: mouse, plasma, iv, 3 umol/animal; 8 h; read-out: plasma % ID/g
metric: tissue uptake at 8 h (%ID/g)
Reply numerically in %ID/g, unit not repeated.

Enquiry: Can you look up the measured tissue uptake at 8 h of CCN(CC)CCNC(=O)c1ccc(I)cc1 [Derivative A, N-(2-diethylaminoethyl) 4-iodo benzamide] for me?
Return: 0.04

* * *

- assay method text: Tissue distribution in C57 BL6 mice bearing B16
- Format: in vivo, mouse
- recorded conditions: mouse, intestine, iv, 3 umol/animal; 8 h; read-out: intestine % ID/g
metric: tissue uptake at 8 h

Enquiry: Can you look up the measured tissue uptake at 8 h of CCN(CC)CCNC(=O)c1ccc(I)cc1 [Derivative A, N-(2-diethylaminoethyl) 4-iodo benzamide] for me?
Return: 0.71 %ID/g
